study.target: UniProt P22681
Sequence (P22681 47-435): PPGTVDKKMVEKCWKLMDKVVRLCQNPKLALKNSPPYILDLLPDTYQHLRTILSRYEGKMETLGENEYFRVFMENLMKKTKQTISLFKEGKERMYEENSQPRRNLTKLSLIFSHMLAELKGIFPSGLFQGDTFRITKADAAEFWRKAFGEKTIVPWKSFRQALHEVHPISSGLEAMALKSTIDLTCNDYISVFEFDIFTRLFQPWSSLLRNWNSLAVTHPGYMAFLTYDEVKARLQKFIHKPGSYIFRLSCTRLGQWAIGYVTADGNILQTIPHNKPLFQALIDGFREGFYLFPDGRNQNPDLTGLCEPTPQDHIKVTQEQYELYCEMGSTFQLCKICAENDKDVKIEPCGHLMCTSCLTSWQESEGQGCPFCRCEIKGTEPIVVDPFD
assay.remarks: C-Cbl LCK Ub TR-FRET assay (c-cbl Lck HTRF)
Format: biochemical
Measured pIC50 values are reported for all entries that follow.
Field pIC50 (float): negative decimal logarithm of the concentration in molar.

Take a look at these entries with their results.
# smiles.code, number
records = [
    ("CC(C)NCc1cc2c(c(C(F)(F)F)c1)CN(c1cccc(C3([C@H](F)c4nncn4C)CC(F)(F)C3)c1)C2=O", 7.43),
    ("CC(C)[C@H]1CN(Cc2cc3c(c(C(F)(F)F)c2)CN(c2cccc(C4(Cc5nncn5C)CC(F)(F)C4)c2)C3=O)CCN1C", 8.15),
    ("CC(C)[C@H]1CN(C)CCN1Cc1cc2c(c(C(F)(F)F)c1)CN(c1cc(C3([C@@H](F)c4nncn4C)CCC3)cc(NCCO)n1)C2=O", 8.15),
]

Give the measured pIC50 for Cn1cnnc1[C@H](F)C1(c2cccc(N3Cc4c(cc([C@H](N)CC5CC5)cc4C(F)(F)F)C3=O)c2)COC1
7.96

This collection of values is drawn from patent US20250230147A1.
